In this section, each of the molecules is paired with its reported GI50.
- Tested on: M14
- assay_protocol: NCI tumour cell line growth inhibition, 48 h
The source made the active and inactive calls. No stated cut-off is given here; in the data, active = GI50 up to about 1.1 µM and inactive = higher.

Worked set:
molecule=COc1cc2c(cc1OC)-c1cc3ccccc3c(=O)n1CC2 readout_value="31.2 µM (inactive)"
molecule="COc1cc2c(cc1OCCCC(=O)Nc1cc(C(=O)Nc3cc(C(=O)NCCCN(C)C)n(C)n3)n(C)n1)N=CC1CCCN1C2=O (stereo not given)" readout_value="16 µM (inactive)"
molecule=C=C(C(=O)C(=O)Oc1ccc(Cl)cc1)C(=O)c1ccc(C)cc1 readout_value="28.3 µM (inactive)"

# next molecule below
Would you mind telling me what GI50 value was observed for `O=C(N/N=C\c1ccc([N+](=O)[O-])cc1)Nc1cccc2ccccc12` ? 58.9 µM (inactive)

* * *

- System: U-251
- assay_protocol: NCI tumour cell line growth inhibition, 48 h
Active and inactive are the calls of the source. Rule as the data show it: active = GI50 up to about 1.1 µM and inactive = higher.
Give your call using only these classes: active, inactive

Example results:
molecule="COc1cccc(C2c3cc4c(cc3OC(Nc3ccccc3)C2C)OCO4)c1OC (configuration not stated)" tested_on=U-251 group=inactive
molecule=O=[N+]([O-])C(=C/c1ccccc1)/C(=C\c1ccccc1)[N+](=O)[O-] tested_on=U-251 group=inactive
molecule=CC(C)c1nc(Cl)nc(Cl)c1Cl tested_on=U-251 group=active
molecule="CCC(C)CCOC(=O)c1ccc(/N=C\\c2ccc(/C=N/c3ccc(C(=O)OCCC(C)CC)cc3)cc2)cc1 (configuration not stated)" tested_on=U-251 group=inactive
molecule=CC(C)(Cc1ccccc1)NC1=NCCO1 tested_on=U-251 group=inactive
molecule=NS(=O)(=O)c1cc(C(=O)O)c(O)c2ccccc12 tested_on=U-251 group=inactive
molecule="COC(=O)C1SC[C@H]2C(=O)N(c3ccccc3)C(=O)N12 (some centres not stated)" tested_on=U-251 group=inactive
molecule=O=C(O)c1ccccc1NS(=O)(=O)c1ccc([N+](=O)[O-])cc1 tested_on=U-251 group=inactive

Please indicate how the test categorized `N#Cc1c(N2CCCC2)nsc1Nc1ccc(F)cc1` . inactive

Hey, what did the test say about CC(O)(/C=C/c1ccccc1)P(=O)(O)c1ccccc1 (configuration not stated) ? inactive

Given `Nc1ccccc1S(=O)(=O)N(CC(=O)O)c1ccccc1` , state the outcome it received in this test. inactive

Test call for this molecule, please: `COP(=O)(OC)/C(=C/c1cn(C(C)=O)c2ccccc12)NC(C)=O` inactive

Please indicate how the test categorized `CN(C)CCNC(=O)c1cccc2c(Nc3ccc(S(=O)(=O)N=C(N)N)cc3)c3ccccc3nc12` . inactive

Entry `CN(C)CCCN1c2ccc([N+](=O)[O-])cc2CCc2cc([N+](=O)[O-])ccc21` : call = ? inactive

What classification did `C=Cc1ccc(C)[n+](C[Si](C)(C)O[Si](C)(C)C[n+]2cc(C=C)ccc2C)c1` end up with in this test? inactive

Per the records of this test, what outcome belongs to `CN(C)c1[se]nc2c1c(=O)n(C)c(=O)n2C` ? inactive

Hi team, can someone confirm the assay call for `Cc1ccc(C)c(NC(=O)c2cccc([N+](=O)[O-])c2O)c1` ? inactive

Please state the recorded outcome for this molecule: `CCCc1n[nH]c(=O)n1N1C(=O)C=CC1=O` inactive

Which outcome did this test record for the molecule OCC1OC(n2cnc3c2N=CNC[C@H]3O)C(Cl)C1O (some centres not stated) ? inactive

Dear colleague, could you share the recorded outcome for `O=C(/C=C/c1ccc(OCCCOc2ccc(/C=C/C(=O)c3ccccc3)cc2)cc1)c1ccccc1` when you have a moment? inactive

Identify the outcome logged in this assay for the molecule shown: Cc1cn(C2CC(N=[N+]=[N-])C(COP(=O)(O)OCC3OC(n4cc(F)c(=O)[nH]c4=O)CC3O)O2)c(=O)[nH]c1=O (configuration not stated) inactive

What classification did `O=C(CCN(CCO)CCO)Nc1ccc2c(c1)C(=O)c1ccc(NC(=O)CCN(CCO)CCO)cc1C2=O` end up with in this test? inactive

* * *

- System: HOP-92
- assay_protocol: NCI tumour cell line growth inhibition, 48 h
The source made the active and inactive calls. Cut-off read from the data, not from the text of the source: active = GI50 up to about 1.1 µM and inactive = higher.
// classify into TRUE (active), FALSE (inactive)

// return assay outcome for Cc1ccc(S(=O)(=O)N2CC(CCN)c3ccccc32)cc1 (stereo not given) FALSE

Recorded call for `Cc1c(C(=O)Nc2ccc(Cl)cc2)nc(N)nc1-c1cccc(Cl)c1` ? FALSE

Called result for `C=Cc1ccc(C)[n+](C[Si](C)(C)O[Si](C)(C)C[n+]2cc(C=C)ccc2C)c1` FALSE

Hi team, can someone confirm the assay call for CC(=O)OC1(C#N)CC2OC1C1NC21 (stereo not given) ? FALSE

Which outcome was assigned to `COC(=O)c1c(OC(C)=O)ccc2c1c1c(OC(C)=O)c3ccccc3c(OC(C)=O)c1n2Cc1ccccc1` in this test? TRUE

* * *

- System: NCI-H226
- assay_protocol: NCI tumour cell line growth inhibition, 48 h
Calls of active or inactive are those of the source. Rule as the data show it: active = GI50 up to about 1.1 µM and inactive = higher.
One label from this list, please: active, inactive

Solved cases below.
compound="COC(=O)CNC(=O)CCC(C)[C@H]1CCC2C3C(C[C@H](OC(C)=O)[C@@]21C)[C@@]1(C)CCC2(C[C@H]1C[C@H]3OC(C)=O)OOC1(CC[C@]3(C)C4C[C@H](OC(C)=O)[C@@]5(C)C(CC[C@@H]5C(C)CCC(=O)NCC(=O)OC)C4[C@H](OC(C)=O)C[C@@H]3C1)OO2 (stereo not given in full)" tested_on=NCI-H226 group=active
compound="CC1=NN(c2ccccc2)C(=O)C1/N=N/c1ccc([As](=O)(O)O)c(O)c1 (stereo not given)" tested_on=NCI-H226 group=inactive
compound=O=C(/C=C/c1cccc([N+](=O)[O-])c1)c1cccnc1 tested_on=NCI-H226 group=inactive
compound=COc1ccc2c(C(=O)O)cc3ccccc3c2c1OC tested_on=NCI-H226 group=inactive
compound="COC(=O)C1(Cc2ccccc2)Cc2cc3c(cc2C1O)CCC3 (stereo not given)" tested_on=NCI-H226 group=inactive

I'd appreciate the recorded outcome for `O=C(NCC#CCO)C(F)(F)F` from this test. inactive

What classification did `Cc1cc2nc3c(C#N)c4c(c(-c5ccc(Cl)cc5)n3c2cc1C)CCC4` end up with in this test? inactive

Please let me know the test result on file for `Cc1occc1C(=S)Nc1ccc(Cl)c(/C=N/OC(C)C)c1` . inactive

Look up the recorded call for O=C1OC2(OC2c2ccc(Cl)cc2)c2ccccc21 (stereo not given) in this test. inactive

Which outcome did this test record for the compound COc1cccc(C2c3cc4c(cc3OC(Nc3ccccc3)C2C)OCO4)c1OC (stereo not given) ? inactive

* * *

- System: MCF7
- assay_protocol: NCI tumour cell line growth inhibition, 48 h
Calls of active or inactive are those of the source. Cut-off read from the data, not from the text of the source: active = GI50 up to about 1.1 µM and inactive = higher.
Write down the outcome that applies. Available outcomes: True (active), False (inactive)

Consider the following illustrative entries.
molecule=COc1ccccc1/N=C1\SCCN1C(=S)Nc1ccc(S(=O)(=O)/N=C/N(C)C)cc1 tested_on=MCF7 group=False
molecule="O=[N+]([O-])c1ccc(C(Nc2ccccc2)P(c2ccccc2)c2ccccc2)cc1 (stereo not given)" tested_on=MCF7 group=False
molecule="Cc1cccc(C)c1N1C(=O)C2c3[nH]c4ccccc4c3C3CCC(C(C)(C)C)CC3C2C1=O (stereo not given)" tested_on=MCF7 group=False
molecule=Cc1cc2c(-c3ccccc3)cc(=O)[nH]c2cc1N tested_on=MCF7 group=False
molecule=O=C(Sc1c(-c2ccccc2)c(=O)n(-c2ccccc2)c(=S)n1-c1ccccc1)c1ccc(Cl)cc1 tested_on=MCF7 group=False
molecule=O=C1/C(=C/c2cccs2)NC(=S)N1CN1CCCCC1 tested_on=MCF7 group=False
molecule="Cc1cc2cc3cc(C)c(N)cc3nc2cc1N [ACRIDINE YELLOW]" tested_on=MCF7 group=True
molecule=O=C1c2ccccc2-c2nc3ccncc3n21 tested_on=MCF7 group=False
molecule="CC1CCc2c(c(CC3CC(=O)NC(=O)C3)nn2-c2ccccc2)C1 (stereo not given)" tested_on=MCF7 group=False

From here, focus on the item given below.
I would be grateful if you could indicate the recorded call for `Cc1c(-c2ccccc2)cc(O)c2nc3ccccc3n12` . False

* * *

- System: UACC-257
- assay_protocol: NCI tumour cell line growth inhibition, 48 h
Activity calls are given as the source filed them. No stated cut-off is given here; in the data, active = GI50 up to about 1.1 µM and inactive = higher.
Outcome field: choose from label 1 = active, label 0 = inactive

Example entries and their recorded answers appear below.
molecule=Nc1n[nH]c2nc3ccccc3nc12 group="label 0"
molecule="C[C@@H](NC(=O)OC1C=CC2(CC1)C(=O)N(C)c1ccccc12)c1cccc2ccccc12 (stereo not given in full)" group="label 0"
molecule=COC1=C(OC)C(=O)C(Cc2c(Cl)nc3n2CCS3)=C(C)C1=O group="label 0"
molecule=C=C(C(=O)C(=O)Oc1ccc(Cl)cc1)C(=O)c1ccc(C)cc1 group="label 0"
molecule=O=C(O)c1cc2sc(C(=O)O)cc2s1 group="label 0"

How was `CCOC(=O)c1c(N2CCCC2)[nH]c(=O)c(C(c2ccco2)c2c(O)c(C(=O)OCC)c(N3CCCC3)[nH]c2=O)c1O` classified in this test? label 0

GET /call?item= `C1=C(CC2=C[P+](c3ccccc3)(c3ccccc3)C=C(c3ccccc3)O2)OC(c2ccccc2)=C[P+]1(c1ccccc1)c1ccccc1` returns the recorded outcome of this test. label 1

// return assay outcome for `CCOc1nc2sc3c(c2c(=O)n1CCSSCCn1c(OCC)nc2sc4c(c2c1=O)CCCC4)CCCC3` label 0

Any idea what this test logged for `O=C(CNc1nncs1)NO` ? label 0

# lookup: test call for `CC(C)(C)C(=O)Nc1ccccc1Br` label 0
